- experiment notes: acute toxicity, intraperitoneal, mice
- study conditions: mouse, in vivo, ip, intraperitoneally
value kind: LD50 (mg/kg)
Use mg/kg as the unit, but write only the number.

Lookup result for COC(=O)NC1C(C)OC(OC2CC=C(C)C3C=CC4C(OC5CC(OC6CCC(OC7CC(O)C(OC8CCC(O)C(C)O8)C(C)O7)C(C)O6)C(OC(C)=O)C(C)O5)C(C)CC(C)C4C3(C)C(=O)C3=C(O)C4(CC(C=O)=CC(O)C4C=C2C)OC3=O)CC1(C)[N+](=O)[O-] (stereo not shown) ; measured LD50: 54
